Below, each entry is listed with its recorded pKd.
- Target Of Assay: T1, monovalent hVISTA-ECD (human VISTA extracellular domain with His tail) (human, UniProt Q9H7M9 33-193)
- T1 construct: analyte flowed over captured antibody; also called huVISTA-His
- T1 sequence (Q9H7M9 other isoform, or with tags, fused parts or gaps limits assumed): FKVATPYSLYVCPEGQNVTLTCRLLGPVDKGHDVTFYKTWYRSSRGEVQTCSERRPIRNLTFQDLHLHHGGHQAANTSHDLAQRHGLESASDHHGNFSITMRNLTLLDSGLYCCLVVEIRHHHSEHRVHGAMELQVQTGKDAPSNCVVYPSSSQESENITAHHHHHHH
- Test Details: SPR, pH 6.0
// returns pKd (minus log10 of molar concentration), number only

P1-064526 (41F11_VH_D31E/Y50W/S55E/A60H/Y100E) (antibody, V domains shown, Kabat positions; also called P1-064526-1) VH: QVQLVESGGGLVKPGGSLRLSCAASGFTFSEYYMSWIRQAPGKGLEWVSWISNSGEPIYYHDSVKGRFTISRDNAKNSLYLQMNSLRAEDTAVYYCARDLPGWEFDLWGRGTLVTVSS VL: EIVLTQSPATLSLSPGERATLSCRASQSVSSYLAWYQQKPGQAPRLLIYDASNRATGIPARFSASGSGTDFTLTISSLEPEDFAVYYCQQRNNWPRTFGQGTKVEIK ... 9.61

Item P1-064534 (41F11_VH_D31E/S35Y/Y50W/S55E/A60H/Y100E/F100aG) (antibody, V domains shown, Kabat positions; also called P1-064534-1) VH: QVQLVESGGGLVKPGGSLRLSCAASGFTFSEYYMYWIRQAPGKGLEWVSWISNSGEPIYYHDSVKGRFTISRDNAKNSLYLQMNSLRAEDTAVYYCARDLPGWEGDLWGRGTLVTVSS VL: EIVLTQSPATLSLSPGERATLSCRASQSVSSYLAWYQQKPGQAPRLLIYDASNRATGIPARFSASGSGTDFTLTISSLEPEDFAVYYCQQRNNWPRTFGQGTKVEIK has what recorded pKd?
8.04

Quick check: pKd of P1-065326 (41F11_VH_D31E/Y50W/S55E/L96E/Y100E VK_A64G) (antibody, V domains shown, Kabat positions; also called P1-065326-1) VH: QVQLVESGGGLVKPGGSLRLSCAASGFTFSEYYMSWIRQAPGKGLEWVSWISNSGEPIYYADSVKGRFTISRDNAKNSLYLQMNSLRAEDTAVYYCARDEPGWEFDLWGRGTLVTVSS VL: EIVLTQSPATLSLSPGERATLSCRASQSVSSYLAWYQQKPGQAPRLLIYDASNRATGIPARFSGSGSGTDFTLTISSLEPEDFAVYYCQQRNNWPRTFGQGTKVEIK ?
9.76
